Where do these numbers come from? They come from the supplement of paper PMC10065799.

# TEST_SYSTEM: EPHB2 (UniProt P29323)
# Sequence (P29323 whole entry, looked up): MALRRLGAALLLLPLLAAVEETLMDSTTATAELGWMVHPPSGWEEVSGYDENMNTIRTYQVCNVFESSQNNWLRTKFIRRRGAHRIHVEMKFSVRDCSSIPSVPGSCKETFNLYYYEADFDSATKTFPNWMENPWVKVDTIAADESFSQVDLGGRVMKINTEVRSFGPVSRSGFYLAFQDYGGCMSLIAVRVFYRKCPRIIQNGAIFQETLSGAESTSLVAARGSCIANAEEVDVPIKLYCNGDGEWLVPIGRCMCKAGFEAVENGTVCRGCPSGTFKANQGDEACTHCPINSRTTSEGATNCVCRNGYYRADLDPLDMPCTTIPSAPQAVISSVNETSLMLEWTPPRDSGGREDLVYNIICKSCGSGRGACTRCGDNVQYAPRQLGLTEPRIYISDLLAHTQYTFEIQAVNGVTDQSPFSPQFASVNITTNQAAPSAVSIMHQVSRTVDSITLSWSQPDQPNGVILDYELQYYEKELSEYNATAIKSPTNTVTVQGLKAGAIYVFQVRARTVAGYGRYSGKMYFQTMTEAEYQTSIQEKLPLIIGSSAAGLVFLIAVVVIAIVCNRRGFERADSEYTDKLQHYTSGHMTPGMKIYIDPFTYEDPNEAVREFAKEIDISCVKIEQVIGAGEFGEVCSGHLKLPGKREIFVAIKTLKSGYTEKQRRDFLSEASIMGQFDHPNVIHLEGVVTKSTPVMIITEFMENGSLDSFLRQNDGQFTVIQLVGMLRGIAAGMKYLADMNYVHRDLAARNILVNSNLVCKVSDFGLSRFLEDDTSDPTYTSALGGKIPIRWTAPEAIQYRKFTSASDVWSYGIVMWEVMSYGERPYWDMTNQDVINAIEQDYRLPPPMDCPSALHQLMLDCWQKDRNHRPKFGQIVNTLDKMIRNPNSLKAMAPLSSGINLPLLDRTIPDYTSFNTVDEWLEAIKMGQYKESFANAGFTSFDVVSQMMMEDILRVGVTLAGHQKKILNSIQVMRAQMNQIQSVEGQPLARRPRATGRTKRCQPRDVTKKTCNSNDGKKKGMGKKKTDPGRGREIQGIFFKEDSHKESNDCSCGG
# TEST_NAME: phosphorylation enrichment, bacterial display (enrichment ratio); higher = better substrate or ligand; peptides without Tyr show the background;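 note: 11-residue human phosphosite peptides and single-mutation variants displayed on the E. coli surface, counted by deep sequencing, each peptide's frequency after selection divided by its frequency in the unselected input library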;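 note: frequency after pTyr selection over input frequency; kinase dosed for 20-30% of maximal phosphorylation in three min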
Catalogue of sequences with associated phosphorylation enrichment
Kindly provide the number alone.

>  <ENTRY_SEQUENCE>
IFGASYVPFAA [RBM47_Y541_YF]

>  <RECORDED_ENDPOINT>
phosphorylation enrichment

>  <REPORTED_MEASUREMENT>
0.53

$$$$
>  <ENTRY_SEQUENCE>
SKKSTYQALLD [GANC_Y43]

>  <RECORDED_ENDPOINT>
phosphorylation enrichment

>  <REPORTED_MEASUREMENT>
0.369

$$$$
>  <ENTRY_SEQUENCE>
LSSETYVKSYT [F5_Y2149_M2148T]

>  <RECORDED_ENDPOINT>
phosphorylation enrichment

>  <REPORTED_MEASUREMENT>
0.74

$$$$
>  <ENTRY_SEQUENCE>
QQLQGYIPSNY [FRK_Y99]

>  <RECORDED_ENDPOINT>
phosphorylation enrichment

>  <REPORTED_MEASUREMENT>
0.437

$$$$
>  <ENTRY_SEQUENCE>
CENNRYGMGAS [PDHA1_Y227_T231A]

>  <RECORDED_ENDPOINT>
phosphorylation enrichment

>  <REPORTED_MEASUREMENT>
0.421

$$$$
>  <ENTRY_SEQUENCE>
PEEKVYLSRGD [CRACR2A_Y141_H136P]

>  <RECORDED_ENDPOINT>
phosphorylation enrichment

>  <REPORTED_MEASUREMENT>
0.573

$$$$

IN: For TPRNTYKMTSL [MKI67_Y849] , what is its reported phosphorylation enrichment?
OUT: 0.545
